Test system: S. aureus MP-12
run.description: Broth dilution MIC determination (CLSI), S. aureus MP-12
Assay type: cell-based
details: Staphylococcus aureus, MP12; strain MP-12, broth dilution
endpoint: MIC

[[record]]
compound = "CO[C@]1(C)C[C@@H](C)CN(C)[C@H](C2CN(Cc3cn(C)cn3)C2)COC(=O)C(C)(C)C(=O)[C@H](C)[C@H]1O[C@@H]1O[C@H](C)C[C@H](N(C)C)[C@H]1O [Compound 173]"
endpoint = "MIC"
result = "> 32 µg/mL"

[[record]]
compound = "CO[C@]1(C)C[C@@H](C)CN(C)[C@@H](C2CCN(C)CC2)COC(=O)C(C)(C)C(=O)[C@H](C)[C@H]1O[C@@H]1O[C@H](C)C[C@H](N(C)C)[C@H]1O [Compound 64]"
endpoint = "MIC"
result = "4 to 32 µg/mL"

[[record]]
compound = "CO[C@]1(C)C[C@@H](C)CN(C)[C@@H](C2CCN(C[C@H]3COC(C)(C)O3)CC2)COC(=O)C(C)(C)C(=O)[C@H](C)[C@H]1O[C@@H]1O[C@H](C)C[C@H](N(C)C)[C@H]1O [Compound 86]"
endpoint = "MIC"
result = "4 to 32 µg/mL"


====

Known MIC of a selection of compounds
Tested on: K. pneumoniae MP-648
run.description: Broth dilution MIC determination (CLSI), K. pneumoniae MP-648
Format: cell-based
details: Klebsiella pneumoniae, MP648; strain MP-648, broth dilution
endpoint: MIC

[[record]]
compound = "CCCN1C[C@H](C)C[C@@](C)(OC)[C@H](O[C@@H]2O[C@H](C)C[C@H](N(C)C)[C@H]2O)[C@@H](C)C(=O)C(C)(C)C(=O)OC[C@H]1[C@H]1C[C@H](N(C)CC(C)C)C1 [Compound 60]"
system_under_test = "K. pneumoniae MP-648"
endpoint = "MIC"
result = "4 to 32 µg/mL"

[[record]]
compound = "CO[C@]1(C)C[C@@H](C)CN(C)[C@H]([C@H]2C[C@H](N(C)CC(C)C)C2)COC(=O)C(C)(C)C(=O)[C@H](C)[C@H]1O[C@@H]1O[C@H](C)C[C@H](N(C)C)[C@H]1O [Compound 131]"
system_under_test = "K. pneumoniae MP-648"
endpoint = "MIC"
result = "< 4 µg/mL"

[[record]]
compound = "CO[C@]1(C)C[C@@H](C)CN(C)[C@H](C2CN(C(=O)CC(C)(C)CN(C)CC3CC3)C2)COC(=O)C(C)(C)C(=O)[C@H](C)[C@H]1O[C@@H]1O[C@H](C)C[C@H](N(C)C)[C@H]1O [Compound 25]"
system_under_test = "K. pneumoniae MP-648"
endpoint = "MIC"
result = "4 to 32 µg/mL"

[[record]]
compound = "CO[C@]1(C)C[C@@H](C)CN(C)[C@H]([C@H]2C[C@@H](N(C)CC3CCCO3)C2)COC(=O)C(C)(C)C(=O)[C@H](C)[C@H]1O[C@@H]1O[C@H](C)C[C@H](N(C)C)[C@H]1O (stereo partly drawn) [Compound 31]"
system_under_test = "K. pneumoniae MP-648"
endpoint = "MIC"
result = "4 to 32 µg/mL"

[[record]]
compound = "CO[C@]1(C)C[C@@H](C)CN(C)[C@H]([C@H]2C[C@@H](N(C)CC3CC3)C2)COC(=O)C(C)(C)C(=O)[C@H](C)[C@H]1O[C@@H]1O[C@H](C)C[C@H](N(C)C)[C@H]1O [Compound 18]"
system_under_test = "K. pneumoniae MP-648"
endpoint = "MIC"
result = "4 to 32 µg/mL"

[[record]]
compound = "CO[C@]1(C)C[C@@H](C)CN(C)[C@H](C2CN(Cc3ccccn3)C2)COC(=O)C(C)(C)C(=O)[C@H](C)[C@H]1O[C@@H]1O[C@H](C)C[C@H](N(C)C)[C@H]1O [Compound 115]"
system_under_test = "K. pneumoniae MP-648"
endpoint = "MIC"
result = "4 to 32 µg/mL"

[[record]]
compound = "CO[C@]1(C)C[C@@H](C)CN(C)[C@@H](C2CCN(C[C@H]3COC(C)(C)O3)CC2)COC(=O)C(C)(C)C(=O)[C@H](C)[C@H]1O[C@@H]1O[C@H](C)C[C@H](N(C)C)[C@H]1O [Compound 86]"
system_under_test = "K. pneumoniae MP-648"
endpoint = "MIC"
result = "4 to 32 µg/mL"

[[record]]
compound = "CCN(C)[C@H]1C[C@@H]([C@@H]2COC(=O)C(C)(C)C(=O)[C@H](C)[C@@H](O[C@@H]3O[C@H](C)C[C@H](N(C)C)[C@H]3O)[C@](C)(OC)C[C@@H](C)CN2C)C1 [Compound 165]"
system_under_test = "K. pneumoniae MP-648"
endpoint = "MIC"
result = "4 to 32 µg/mL"

[[record]]
compound = "CO[C@]1(C)C[C@@H](C)CN(C)[C@H](C2CN(Cc3ccncc3)C2)COC(=O)C(C)(C)C(=O)[C@H](C)[C@H]1O[C@@H]1O[C@H](C)C[C@H](N(C)C)[C@H]1O [Compound 176]"
system_under_test = "K. pneumoniae MP-648"
endpoint = "MIC"
result = "> 32 µg/mL"

[[record]]
compound = "CO[C@]1(C)C[C@@H](C)CN(C)[C@H](C2CN(Cc3cccnc3)C2)COC(=O)C(C)(C)C(=O)[C@H](C)[C@H]1O[C@@H]1O[C@H](C)C[C@H](N(C)C)[C@H]1O [Compound 119]"
system_under_test = "K. pneumoniae MP-648"
endpoint = "MIC"
result = "4 to 32 µg/mL"

[[record]]
compound = "CCCN1C[C@H](C)C[C@@](C)(OC)[C@H](O[C@@H]2O[C@H](C)C[C@H](N(C)C)[C@H]2O)[C@@H](C)C(=O)C(C)(C)C(=O)OC[C@H]1[C@H]1C[C@H](N(C)CC2CC2)C1 [Compound 95]"
system_under_test = "K. pneumoniae MP-648"
endpoint = "MIC"
result = "4 to 32 µg/mL"

[[record]]
compound = "CO[C@]1(C)C[C@@H](C)CN(C)[C@](C)(C2CCN(C(C)C)CC2)COC(=O)C(C)(C)C(=O)[C@H](C)[C@H]1O[C@@H]1O[C@H](C)C[C@H](N(C)C)[C@H]1O [Compound 158]"
system_under_test = "K. pneumoniae MP-648"
endpoint = "MIC"
result = "< 4 µg/mL"

